The origin of these recorded values is patent US10899759B2.

# Assay target: human mAChR M1 (Homo sapiens, UniProt P11229)
# Sequence (P11229 1-460): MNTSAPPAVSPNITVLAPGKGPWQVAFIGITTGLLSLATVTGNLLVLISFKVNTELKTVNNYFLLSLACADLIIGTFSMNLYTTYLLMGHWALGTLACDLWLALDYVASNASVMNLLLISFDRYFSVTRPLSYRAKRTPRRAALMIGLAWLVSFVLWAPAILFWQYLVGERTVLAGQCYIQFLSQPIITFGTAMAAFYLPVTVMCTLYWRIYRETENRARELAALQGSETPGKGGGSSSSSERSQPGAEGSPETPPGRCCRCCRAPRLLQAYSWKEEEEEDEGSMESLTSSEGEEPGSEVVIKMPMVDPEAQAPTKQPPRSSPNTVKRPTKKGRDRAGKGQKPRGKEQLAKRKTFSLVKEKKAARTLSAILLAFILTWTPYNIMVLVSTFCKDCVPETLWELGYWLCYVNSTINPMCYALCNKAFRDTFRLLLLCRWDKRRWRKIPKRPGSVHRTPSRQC
# Assay details: mAChR M1 cell-based functional assay (calcium mobilization, Fluo-4, FDSS)
# Reported conditions: CHO-K1 cells stably expressing hM1; positive allosteric modulator activity as increase in the EC20 acetylcholine response
pEC50: −log10 of the molar value.
Give Criterion met when the value for pEC50 is at least 6. Give Criterion not met when it is less.

CC1CC(NC(=O)c2cc(Cc3ccc(-n4cccn4)cc3)c3ccsc3n2)CC(C)O1 (centres unmarked)    Criterion met
COCCNC(=O)c1cc(Cc2ccc(-n3cccn3)cc2)c2ccsc2n1    Criterion met
COCCNC(=O)c1cc(Cc2ccc(-c3cnn(C)c3)nc2)c2ccsc2n1    Criterion met
Cn1ccc2c(Cc3ccc(-n4cccn4)cc3)cc(C(=O)NC3CCOCC3)nc21    Criterion met
Cn1ccc(-c2ccc(Cc3cc(C(=O)NC4CCOC(C)(C)C4)nc4sccc34)cn2)n1 (centres unmarked)    Criterion met

Would you kindly look at the next entry?
Hi team, for "Cc1nc(-c2ccc(Cc3cc(C(=O)N[C@H]4CCCC[C@@H]4O)nc4sccc34)cc2)co1" , is the recorded pEC50 at or above 6?
Criterion met
